Cited source for all entries: ChEMBL document CHEMBL4130623

- Test system: Influenza A virus (A/Puerto Rico/8/1934(H1N1))
- protocolDescription: Antiviral activity against Influenza A virus (A/PR/8/34 (H1N1)(NA-H274Y)) infected in MDCK cells assessed as reduction in virus-induced cytopathic effect after 48 hrs by microscopic analysis
- Type: functional, organism-based
experimentalReadout: EC50

// worked examples, EC50 included
[[record]]
compound = "C[C@@H]1C2CC(C[C@H]1NCc1sccc1C1CC1)C2(C)C (single isomer, unassigned)"
assaytarget = "Influenza A virus (A/Puerto Rico/8/1934(H1N1))"
experimentalreadout = "EC50"
value = "6.85 µM"

[[record]]
compound = "NC12CC3CC(CC(C3)C1)C2 [AMANTADINE]"
assaytarget = "Influenza A virus (A/Puerto Rico/8/1934(H1N1))"
experimentalreadout = "EC50"
value = "> 100 µM"


Moving on to another compound below.
Request: Identify the measured EC50 of CCOC(=O)C1=C[C@@H](OC(CC)CC)[C@H](NC(C)=O)[C@@H](N)C1 [OSELTAMIVIR] for Influenza A virus (A/Puerto Rico/8/1934(H1N1)).
Result: > 10 µM
